testSystem: human CCR2 (Homo sapiens)
Sequence (P41597 1-360 isoform P41597-2): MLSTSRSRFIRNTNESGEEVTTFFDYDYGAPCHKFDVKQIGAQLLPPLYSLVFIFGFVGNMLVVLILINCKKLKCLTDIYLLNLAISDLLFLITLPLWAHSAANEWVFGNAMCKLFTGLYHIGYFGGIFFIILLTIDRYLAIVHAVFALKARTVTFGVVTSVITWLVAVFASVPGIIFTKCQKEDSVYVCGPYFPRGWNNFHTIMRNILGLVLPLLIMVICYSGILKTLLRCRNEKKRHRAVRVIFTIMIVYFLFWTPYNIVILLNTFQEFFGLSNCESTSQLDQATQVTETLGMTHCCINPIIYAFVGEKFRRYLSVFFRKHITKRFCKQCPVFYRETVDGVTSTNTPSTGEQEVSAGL
experiment: Functional Ca2+ release test (B-1)
measurementConditions: Chem-1 cell line transfected with human CCR2; 50% inhibition of the MCP-1 effect, MCP-1 at EC50 (about 5 nM); in some cases means of several determinations
assayMetric: IC50 (nM)

CSc1cnn(-c2nc(C(F)(F)F)c(Oc3ccc(Cl)c(Cl)c3)c(=O)[nH]2)c1 [Example 248]    2.2

1: CCc1cccc(-c2nc(C(F)(F)F)c(Oc3ccc(Cl)c(Cl)c3)c(=O)[nH]2)n1 [Example 162]
2: CC(C)Oc1ccc(-c2nc(C(F)(F)F)c(Oc3ccc(Cl)c(Cl)c3)c(=O)[nH]2)cn1 [Example 163]
Task item: Of 1 versus 2 , which is the one with smaller reported IC50? # respond with the chosen item's label
Reply: 1

I: O=c1[nH]c(-c2ncc(F)cc2F)nc(C(F)(F)F)c1Oc1ccc(Cl)c(Cl)c1 [Example 4]
II: Nc1ccnc(-c2nc(C(F)(F)F)c(Oc3ccc(Cl)c(C(F)(F)F)c3)c(=O)[nH]2)c1 [Example 45]
Task item: Compare IC50: is it lower for I or for II ? Your answer should be the label of the entry you select.
Reply: I
(I: 2.9 nM, II: 4.7 nM)

* * *

testSystem: human CCR2 (Homo sapiens)
Construct: host or cells: Chem-1 cell line
experiment: Functional Ca2+ release test (B-1)
Assay type: cell-based
measurementConditions: Chem-1 cell line transfected with human CCR2; 50% inhibition of the MCP-1 effect, MCP-1 at EC50 (about 5 nM); in some cases means of several determinations
pIC50: −log10 of the molar value.
assayMetric: pIC50

Worked set:
O=c1[nH]c(-c2ccc3ccccc3n2)nc(C(F)(F)F)c1Oc1ccc(Cl)c(Cl)c1    7.48
CC(C)(C)Sc1cccnc1-c1nc(C(F)(F)F)c(Oc2ccc(Cl)c(Cl)c2)c(=O)[nH]1    7.28
CNc1cccc(-c2nc(C(F)(F)F)c(Oc3ccc(Cl)c(C(F)(F)F)c3)c(=O)[nH]2)n1    8.57

P: CCn1ccc(-c2nc(C(F)(F)F)c(Oc3ccc(Cl)c(C(F)(F)F)c3)c(=O)[nH]2)n1
Q: O=c1[nH]c(-c2cccnc2)nc(C(F)(F)F)c1Cc1ccc(Cl)c(C(F)(F)F)c1
Task item: Between P and Q , which one shows the larger pIC50 value? Response format: the label of the selected entry.
Reply: P
(P: 9.30, Q: 7.85)

A: O=C1NCCN1c1nc(C(F)(F)F)c(Cc2ccc(Cl)c(Cl)c2)c(=O)[nH]1
B: O=c1[nH]c(-c2ccnnc2)nc(C(F)(F)F)c1Oc1ccc(Cl)c(Cl)c1
C: COc1c[nH]nc1-c1nc(C(F)(F)F)c(Oc2ccc(Cl)c(Cl)c2)c(=O)[nH]1
Task item: Give the ascending ranking of the items by reported pIC50. // format: requested-order list of labels
Reply: B, A, C
(B: 5.95, A: 7.23, C: 9.22)

* * *

testSystem: murine CCR2 (Mus musculus, UniProt P51683)
Construct: host or cells: U2OS β-arrestin cell line
Sequence (P51683 whole entry): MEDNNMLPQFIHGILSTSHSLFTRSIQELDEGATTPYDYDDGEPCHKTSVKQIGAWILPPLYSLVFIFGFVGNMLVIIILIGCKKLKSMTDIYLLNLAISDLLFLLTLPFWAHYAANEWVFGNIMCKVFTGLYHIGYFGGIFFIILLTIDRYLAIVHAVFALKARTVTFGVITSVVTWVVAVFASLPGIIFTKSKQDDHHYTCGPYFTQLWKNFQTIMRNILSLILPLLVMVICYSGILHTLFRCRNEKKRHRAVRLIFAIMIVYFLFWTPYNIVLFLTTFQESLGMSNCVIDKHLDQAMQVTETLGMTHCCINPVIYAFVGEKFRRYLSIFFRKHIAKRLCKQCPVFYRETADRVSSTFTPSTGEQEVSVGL
experiment: Functional β-arrestin recruiting test with human MCP-1 (B-2a)
Assay type: cell-based
measurementConditions: U2OS β-arrestin cell line transfected with murine CCR2; agonist human MCP-1 at EC50 (about 3 nM); in some cases means of several determinations
pIC50: −log10 of the molar value. Structures can show the parent of a compound that is named as a salt.
assayMetric: pIC50

O=c1[nH]c(Nc2cn[nH]c2)nc(C(F)(F)F)c1Cc1ccc(Cl)c(C(F)(F)F)c1    6.42
O=C1NCCN1c1nc(C(F)(F)F)c(Cc2ccc(Cl)c(Cl)c2)c(=O)[nH]1    6.44
Nc1cnn(-c2nc(C(F)(F)F)c(Cc3ccc(Cl)c(C(F)(F)F)c3)c(=O)[nH]2)c1    7.55
O=c1[nH]c(-c2ccccn2)nc(C(F)(F)F)c1Oc1ccc(Cl)c(Cl)c1    7.51
Cn1nccc1-c1nc(C(F)(F)F)c(Oc2ccc(Cl)c(Cl)c2)c(=O)[nH]1    6.05

A: CC1(C)NC(c2nc(C(F)(F)F)c(Oc3ccc(Cl)c(C(F)(F)F)c3)c(=O)[nH]2)=NO1
B: O=c1[nH]c(-c2ncon2)nc(C(F)(F)F)c1Oc1ccc(Cl)c(C(F)(F)F)c1
C: COc1cccc(Nc2nc(C(F)(F)F)c(Oc3ccc(Cl)c(C(F)(F)F)c3)c(=O)[nH]2)n1
D: O=c1[nH]c(-c2ncccc2Cl)nc(C(F)(F)F)c1Oc1ccc(F)c(F)c1
Task item: Hey, quick one: sort these by pIC50, low to high? List labels; respect the requested ordering.
Reply: C, D, A, B

I: O=c1[nH]c(Cn2cncn2)nc(C(F)(F)F)c1Cc1ccc(Cl)c(Cl)c1
II: Cn1ncc(-c2nc(C(F)(F)F)c(Cc3ccc(Cl)c(Cl)c3)c(=O)[nH]2)c1N
III: O=c1[nH]c(-c2cc[nH]n2)nc(C(F)(F)F)c1Cc1ccc(Cl)c(Cl)c1
IV: O=c1[nH]c(-c2cccc(Cl)n2)nc(C(F)(F)F)c1Cc1ccc(Cl)c(Cl)c1
Task item: Put the items in sequence by pIC50, from largest down. Reply with the labels, ordered as the question asks.
Reply: III, II, IV, I
(III: 8.33, II: 6.66, IV: 6.42, I: 6.01)

1: COc1ccc2nc(-c3nc(C(F)(F)F)c(Oc4ccc(Cl)c(Cl)c4)c(=O)[nH]3)ccc2c1
2: Cc1ccc(-c2nc(C(F)(F)F)c(Cc3ccc(Cl)c(Cl)c3)c(=O)[nH]2)nc1
Task item: Record comparison, field pIC50: mark the lower of 1 and 2 . // respond with label for picked entry
Reply: 1

1: O=c1[nH]c(-c2cc(O)ccn2)nc(C(F)(F)F)c1Oc1ccc(Cl)c(Cl)c1
2: Nc1[nH]ncc1-c1nc(C(F)(F)F)c(Oc2ccc(Cl)c(Cl)c2)c(=O)[nH]1 [Example 62, trifluoroacetate]
3: O=c1[nH]c(-c2ncccc2Cl)nc(C(F)(F)F)c1Cc1ccc(Cl)c(Cl)c1
4: Cn1nc(Cc2nc(C(F)(F)F)c(Cc3ccc(Cl)c(Cl)c3)c(=O)[nH]2)[nH]c1=O
Task item: Parameters: sort_field (pIC50), sort_dir (desc). I'd appreciate it if you listed the labels in the requested order.
Reply: 3, 2, 4, 1
